- TARGET SYSTEM: cAMP and cAMP-inhibited cGMP 3',5'-cyclic phosphodiesterase 10A (Homo sapiens, UniProt Q9Y233)
- Sequence (Q9Y233 whole entry): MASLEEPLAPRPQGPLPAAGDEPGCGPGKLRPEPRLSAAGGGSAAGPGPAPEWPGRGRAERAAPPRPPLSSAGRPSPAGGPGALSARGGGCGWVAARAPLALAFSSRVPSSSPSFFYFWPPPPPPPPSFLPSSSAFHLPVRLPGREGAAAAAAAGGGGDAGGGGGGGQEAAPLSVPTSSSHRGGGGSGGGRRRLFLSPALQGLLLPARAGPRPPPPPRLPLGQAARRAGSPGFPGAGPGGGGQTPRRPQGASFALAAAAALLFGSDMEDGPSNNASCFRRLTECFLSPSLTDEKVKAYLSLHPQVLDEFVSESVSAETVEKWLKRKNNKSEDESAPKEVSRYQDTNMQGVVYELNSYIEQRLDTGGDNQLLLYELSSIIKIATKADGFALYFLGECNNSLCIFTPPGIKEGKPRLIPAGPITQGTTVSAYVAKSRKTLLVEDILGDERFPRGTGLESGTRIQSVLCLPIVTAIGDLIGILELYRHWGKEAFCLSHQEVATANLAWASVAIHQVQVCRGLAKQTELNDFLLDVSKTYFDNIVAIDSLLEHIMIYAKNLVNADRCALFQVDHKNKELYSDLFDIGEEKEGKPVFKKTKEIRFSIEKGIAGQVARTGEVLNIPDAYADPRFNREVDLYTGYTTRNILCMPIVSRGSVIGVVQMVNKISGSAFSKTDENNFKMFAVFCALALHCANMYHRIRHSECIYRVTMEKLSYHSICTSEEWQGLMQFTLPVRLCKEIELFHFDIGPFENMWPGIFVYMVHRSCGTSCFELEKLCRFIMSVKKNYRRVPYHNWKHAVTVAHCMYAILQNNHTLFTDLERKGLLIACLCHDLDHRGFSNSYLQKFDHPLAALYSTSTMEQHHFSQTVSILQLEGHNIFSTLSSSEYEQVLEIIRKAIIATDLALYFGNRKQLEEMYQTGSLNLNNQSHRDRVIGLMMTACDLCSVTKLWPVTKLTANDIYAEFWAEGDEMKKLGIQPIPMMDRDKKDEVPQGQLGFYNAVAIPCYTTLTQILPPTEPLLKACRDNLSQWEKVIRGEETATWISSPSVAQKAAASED
READOUT: pKi
Would you please state pKi, meaning minus log10 of the concentration in mol/L, as a bare number?

Look up pKi: Cc1ccc([C@H]2C[C@@H]2COc2cc(NCc3cnn(C)c3)nc(C)n2)nc1
10.40

Attribution: ChEMBL document CHEMBL3639234
